# measurement target: GSPT1 (Homo sapiens (Human), UniProt P15170+Q96SW2)
# Sequence (P15170 whole entry, one chain of several): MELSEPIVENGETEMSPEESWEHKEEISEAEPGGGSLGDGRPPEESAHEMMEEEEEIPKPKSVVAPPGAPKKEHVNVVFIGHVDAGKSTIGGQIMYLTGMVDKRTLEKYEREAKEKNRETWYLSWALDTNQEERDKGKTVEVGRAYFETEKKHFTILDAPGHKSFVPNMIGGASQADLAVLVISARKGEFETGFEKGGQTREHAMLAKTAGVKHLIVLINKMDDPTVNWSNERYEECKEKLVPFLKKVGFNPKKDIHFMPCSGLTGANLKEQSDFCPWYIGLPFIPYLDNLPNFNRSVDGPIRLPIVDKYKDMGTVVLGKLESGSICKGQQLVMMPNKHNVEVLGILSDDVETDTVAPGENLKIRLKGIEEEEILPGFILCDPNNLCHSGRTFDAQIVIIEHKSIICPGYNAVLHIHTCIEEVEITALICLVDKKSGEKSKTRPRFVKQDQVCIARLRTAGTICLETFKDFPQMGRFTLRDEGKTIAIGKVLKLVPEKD
# Sequence (Q16531 2-1140 partner, one chain of several): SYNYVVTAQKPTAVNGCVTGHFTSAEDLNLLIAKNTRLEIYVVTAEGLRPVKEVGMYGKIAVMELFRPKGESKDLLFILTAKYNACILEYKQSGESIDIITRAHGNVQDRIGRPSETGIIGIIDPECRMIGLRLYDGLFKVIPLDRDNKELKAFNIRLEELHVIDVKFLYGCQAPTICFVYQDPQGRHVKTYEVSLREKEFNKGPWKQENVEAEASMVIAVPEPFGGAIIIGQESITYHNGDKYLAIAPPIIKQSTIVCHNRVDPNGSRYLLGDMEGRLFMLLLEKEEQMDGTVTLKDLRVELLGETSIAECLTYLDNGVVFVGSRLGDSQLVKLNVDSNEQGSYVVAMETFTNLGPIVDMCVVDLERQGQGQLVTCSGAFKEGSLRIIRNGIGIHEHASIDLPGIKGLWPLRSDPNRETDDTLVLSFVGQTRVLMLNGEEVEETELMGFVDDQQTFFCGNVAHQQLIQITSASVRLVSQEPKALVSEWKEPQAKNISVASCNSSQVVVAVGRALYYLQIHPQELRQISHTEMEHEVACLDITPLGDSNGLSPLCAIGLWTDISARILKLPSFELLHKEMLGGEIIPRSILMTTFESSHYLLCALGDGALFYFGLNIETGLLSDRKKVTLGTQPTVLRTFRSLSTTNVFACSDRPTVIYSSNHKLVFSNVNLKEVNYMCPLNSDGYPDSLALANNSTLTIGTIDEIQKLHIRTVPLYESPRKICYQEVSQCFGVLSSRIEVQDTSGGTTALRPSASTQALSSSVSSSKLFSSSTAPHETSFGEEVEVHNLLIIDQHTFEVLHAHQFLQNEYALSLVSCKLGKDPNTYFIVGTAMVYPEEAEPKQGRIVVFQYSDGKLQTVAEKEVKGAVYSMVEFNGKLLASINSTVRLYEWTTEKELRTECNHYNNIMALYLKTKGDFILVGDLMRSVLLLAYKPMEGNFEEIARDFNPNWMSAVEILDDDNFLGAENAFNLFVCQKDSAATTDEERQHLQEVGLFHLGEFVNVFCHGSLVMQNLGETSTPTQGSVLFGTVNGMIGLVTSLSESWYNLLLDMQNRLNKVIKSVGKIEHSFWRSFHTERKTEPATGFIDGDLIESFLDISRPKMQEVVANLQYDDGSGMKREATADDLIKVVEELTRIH
# assay notes: immunofluorescence assay for GSPT1 degradation in CAL-51 cells (Example 10)
# Type: cell-based
# setup conditions: CAL-51 cells, 6 h; read-out: IF Class (GSPT1 degradation DC50)
measured endpoint: DC50

>  <compound>
O=C1CCC(N2Cc3ccc(COC(=O)NC45CC(c6ccccc6F)(C4)C5)cc3C2=O)C(=O)N1 (centres unmarked)

>  <measurement target>
GSPT1 (Homo sapiens (Human), UniProt P15170+Q96SW2)

>  <observed value>
< 0.03 µM

$$$$

Q: Look at this compound and give its reported DC50. CC(C)c1cccc(NC(=O)OCc2ccc3c(c2)C(=O)N(C2CCC(=O)NC2=O)C3)c1 (centres unmarked)
A: < 0.03 µM

Q: Look at this compound and give its reported DC50. CC(C)(C)c1ccc(F)c(NC(=O)OCc2ccc3c(c2)C(=O)N(C2CCC(=O)NC2=O)C3)c1 (centres unmarked)
A: 0.03 to 0.3 µM

* * *

# measurement target: Full length wild-type cereblon CRBN (Homo sapiens (Human), UniProt Q96SW2)
# Sequence (Q96SW2 whole entry): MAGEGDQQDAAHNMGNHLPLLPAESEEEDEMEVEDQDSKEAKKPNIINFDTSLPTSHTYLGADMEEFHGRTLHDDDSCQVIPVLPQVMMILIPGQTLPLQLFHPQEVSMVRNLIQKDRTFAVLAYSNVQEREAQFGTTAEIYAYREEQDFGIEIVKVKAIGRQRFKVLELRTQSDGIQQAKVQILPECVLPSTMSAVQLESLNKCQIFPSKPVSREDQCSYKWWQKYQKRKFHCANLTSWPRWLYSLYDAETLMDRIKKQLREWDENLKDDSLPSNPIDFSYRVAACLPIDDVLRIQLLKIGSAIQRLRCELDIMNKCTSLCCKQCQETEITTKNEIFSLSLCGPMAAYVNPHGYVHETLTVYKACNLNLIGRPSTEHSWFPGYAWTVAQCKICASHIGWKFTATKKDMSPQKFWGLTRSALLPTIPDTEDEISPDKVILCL
# assay notes: fluorescence polarization (FP) assay, cereblon binding
# setup conditions: read-out: rFP IC50
pIC50: −log10 of the molar value.
measured endpoint: pIC50

>  <molecule>
CN1CCC(Oc2cc(Cl)cc(NC(=O)OCc3ccc4c(c3)C(=O)N(C3CCC(=O)NC3=O)C4)c2)C1 (stereo not drawn)

>  <pIC50>
> 6.30

$$$$

Q: Look at this molecule and give its reported pIC50. O=C1CCC(N2Cc3ccc(COC(=O)Nc4ccc(N5CCCC5)nc4)cc3C2=O)C(=O)N1 (stereo not drawn)
A: > 6.30

Q: Look at this molecule and give its reported pIC50. O=C1CCC(N2Cc3ccc(COC(=O)NC4CCN(c5ccccn5)CC4)cc3C2=O)C(=O)N1 (stereo not drawn)
A: > 6.30

* * *

# measurement target: GSPT1 (Homo sapiens (Human), UniProt P15170+Q96SW2)
# assay notes: immunofluorescence assay for GSPT1 degradation in CAL-51 cells (Example 4)
# Assay type: cell-based
# setup conditions: 6 hours, read-out: Activity for GSPT1 degradation, Code (DC50)
measured endpoint: DC50

Example entries and their recorded answers appear below.
>  <compound>
Cc1ncc(NC(=O)OCc2ccc3c(c2)C(=O)N(C2CCC(=O)NC2=O)C3)cc1OC(F)(F)F (stereo not shown)

>  <observed value>
< 30 nM

$$$$
>  <compound>
O=C1CCC(N2Cc3ccc(COC(=O)Nc4cnc5c(c4)CCC5)cc3C2=O)C(=O)N1 (stereo not shown)

>  <observed value>
30 to 300 nM

$$$$
>  <compound>
O=C1CCC(N2Cc3ccc(COC(=O)N4CCCCC4)cc3C2=O)C(=O)N1 (stereo not shown)

>  <observed value>
> 300 nM

$$$$
>  <compound>
O=C1CCC(N2Cc3ccc(COC(=O)Nc4cc(F)c(F)c(Cl)c4)cc3C2=O)C(=O)N1 (stereo not shown)

>  <observed value>
30 to 300 nM

$$$$

Q: Look at this compound and give its reported DC50. Cc1cc(NC(=O)OCc2ccc3c(c2)C(=O)N(C2CCC(=O)NC2=O)C3)cc(C)c1C#N (stereo not shown)
A: 30 to 300 nM

Q: Look at this compound and give its reported DC50. O=C1CCC(N2Cc3ccc(COC(=O)Nc4ccc(-c5ccccc5)cn4)cc3C2=O)C(=O)N1 (stereo not shown)
A: 30 to 300 nM

Q: Look at this compound and give its reported DC50. COc1cc(NC(=O)OCc2ccc3c(c2)C(=O)N(C2CCC(=O)NC2=O)C3)ccc1C (stereo not shown)
A: 30 to 300 nM
